Reference source: the NIST ThermoML archive (doi:10.1016/j.jct.2017.12.012)

Experiment: activity coefficient (dimensionless); of the first substance listed, at infinite dilution; xn = mol fraction of the nth substance listed
Conditions: 333.15 K; 101.33 kPa; Liquid; Chromatography; x1 = 0
Please use condition met whenever activity coefficient is not below 2, and condition not met whenever it is.

Reported activity coefficient reaches at least 2 for CC#N [acetonitrile] + CCCCCCCCn1cc[n+](C)c1C.O=S(=O)([N-]S(=O)(=O)C(F)(F)F)C(F)(F)F ? condition not met

Could you verify whether the entry CC(C)O [propan-2-ol] + CCCCCCCCn1cc[n+](C)c1C.O=S(=O)([N-]S(=O)(=O)C(F)(F)F)C(F)(F)F shows activity coefficient of no less than 2? condition not met

Given CC(C)=O [acetone] + CCCCCCCCn1cc[n+](C)c1C.O=S(=O)([N-]S(=O)(=O)C(F)(F)F)C(F)(F)F , state whether its activity coefficient is at least 2. condition not met

Is activity coefficient for CCCCCO [pentan-1-ol] + CCCCCCCCn1cc[n+](C)c1C.O=S(=O)([N-]S(=O)(=O)C(F)(F)F)C(F)(F)F at or above 2? condition not met

For this compound, is measured activity coefficient 2 or higher? CCCCC [pentane] + CCCCCCCCn1cc[n+](C)c1C.O=S(=O)([N-]S(=O)(=O)C(F)(F)F)C(F)(F)F condition met

Is it the case that c1ccccc1 [benzene] + CCCCCCCCn1cc[n+](C)c1C.O=S(=O)([N-]S(=O)(=O)C(F)(F)F)C(F)(F)F has activity coefficient reaching or exceeding 2? condition not met

activity coefficient >= 2 for CCCCCC [hexane] + CCCCCCCCn1cc[n+](C)c1C.O=S(=O)([N-]S(=O)(=O)C(F)(F)F)C(F)(F)F ? condition met

Tell me whether activity coefficient is at least 2 here: CCCCO [butan-1-ol] + CCCCCCCCn1cc[n+](C)c1C.O=S(=O)([N-]S(=O)(=O)C(F)(F)F)C(F)(F)F condition not met

Decide: is the reported value of activity coefficient for CCCCCCCCC [nonane] + CCCCCCCCn1cc[n+](C)c1C.O=S(=O)([N-]S(=O)(=O)C(F)(F)F)C(F)(F)F equal to or greater than 2? condition met
